# testMethodNotes: Particle size and polydispersity index of nanoparticle compositions (Zetasizer Nano ZS)
# Format: physicochemical
# studyConditions: Table 1A; lipid:DSPC:cholesterol:PEG-DMG 50:10:38.5:1.5 mol %
propertyName: Size (nm)
Give a bare numeral; the unit nm is implied.

The cases that follow already have their Size on record.
CCCCCCCCC(CCCCCCCC)OC(=O)CCCCCCCN(C)CCCCCCCCCC(=O)OCCCCCCC [Compound 149] = 62.1
CCCCCC/C=C\COC(=O)CCCCCCCN(CCO)CCCCCCCC(=O)OC(CCCCCCCC)CCCCCCCC [Compound 24] = 99.5
CCCCCCCCCCCCCCCCCCN(CCO)CCCCCCCC(=O)OC(CCCCCCCC)CCCCCCCC [Compound 1] = 72.7
CCCCCCCCCOC(=O)CCCCCCCN(CCCCCCCC(=O)OC(CCCCCCCC)CCCCCCCC)CCCN(C)S(C)(=O)=O [Compound 173] = 75.5
CCCCCCCC/C=C\COC(=O)CCCCCN(CCO)CCCCCC(=O)OC/C=C\CCCCCCCC [Compound 140] = 120.3
CCCCCCCCC(C)OC(=O)CCCCCN(CCO)CCCCCCCC(=O)OC(CCCCCCCC)CCCCCCCC (centres unmarked) [Compound 122] = 69.3
CCCCCCCCCOC(=O)CCCCCCCN(CCO)CCCCCCCCCC(=O)OC(CCCCCCCC)CCCCCCCC [Compound 23] = 104.5

Size measured on CCCCCCCCCOC(=O)CCCCCCCN(CCO)CCCCCCCC(=O)OC1CCC(CCCCC)CC1 (centres unmarked) [Compound 79] = 93.7
